Target: Ephrin type-B receptor 2 (Homo sapiens)
Sequence (P29323 whole entry): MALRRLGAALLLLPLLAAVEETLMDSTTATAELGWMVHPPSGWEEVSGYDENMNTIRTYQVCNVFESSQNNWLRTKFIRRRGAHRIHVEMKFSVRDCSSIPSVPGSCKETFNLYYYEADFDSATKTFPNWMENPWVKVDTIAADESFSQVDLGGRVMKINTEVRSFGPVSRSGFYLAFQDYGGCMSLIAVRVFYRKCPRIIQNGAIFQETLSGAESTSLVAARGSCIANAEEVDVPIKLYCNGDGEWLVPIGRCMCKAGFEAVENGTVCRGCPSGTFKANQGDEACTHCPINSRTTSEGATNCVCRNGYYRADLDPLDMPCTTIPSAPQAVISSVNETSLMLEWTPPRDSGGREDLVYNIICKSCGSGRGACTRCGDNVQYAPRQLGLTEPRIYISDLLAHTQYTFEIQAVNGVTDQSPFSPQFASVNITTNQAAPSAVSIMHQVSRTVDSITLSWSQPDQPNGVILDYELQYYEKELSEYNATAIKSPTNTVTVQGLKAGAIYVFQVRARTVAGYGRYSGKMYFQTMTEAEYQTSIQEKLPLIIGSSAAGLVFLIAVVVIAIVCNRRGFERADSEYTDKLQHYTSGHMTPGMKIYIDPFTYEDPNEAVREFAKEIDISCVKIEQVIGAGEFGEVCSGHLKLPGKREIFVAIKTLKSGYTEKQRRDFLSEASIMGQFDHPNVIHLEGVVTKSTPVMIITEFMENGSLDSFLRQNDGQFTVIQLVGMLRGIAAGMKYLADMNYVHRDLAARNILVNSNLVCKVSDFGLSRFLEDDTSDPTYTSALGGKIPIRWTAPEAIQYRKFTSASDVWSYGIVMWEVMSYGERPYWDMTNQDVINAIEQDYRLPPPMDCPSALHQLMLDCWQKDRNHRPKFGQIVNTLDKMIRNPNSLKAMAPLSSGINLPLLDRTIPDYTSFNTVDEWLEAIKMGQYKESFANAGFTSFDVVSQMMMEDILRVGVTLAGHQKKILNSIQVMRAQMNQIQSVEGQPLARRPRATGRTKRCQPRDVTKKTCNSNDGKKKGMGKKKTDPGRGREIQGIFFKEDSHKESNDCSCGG
pIC50: −log10 of the molar value.
Test Readout: pIC50

// query Value lookup for pIC50; key = OCCn1cc(-c2cnc3nnn(Cc4ccc5ncccc5c4)c3n2)cn1 [PF-04217903]
// result < 5.00

###

Molecular target: Hepatocyte growth factor receptor (Homo sapiens, UniProt P08581, Y1230C)
Sequence (P08581 25-1390 Y1230C limits assumed): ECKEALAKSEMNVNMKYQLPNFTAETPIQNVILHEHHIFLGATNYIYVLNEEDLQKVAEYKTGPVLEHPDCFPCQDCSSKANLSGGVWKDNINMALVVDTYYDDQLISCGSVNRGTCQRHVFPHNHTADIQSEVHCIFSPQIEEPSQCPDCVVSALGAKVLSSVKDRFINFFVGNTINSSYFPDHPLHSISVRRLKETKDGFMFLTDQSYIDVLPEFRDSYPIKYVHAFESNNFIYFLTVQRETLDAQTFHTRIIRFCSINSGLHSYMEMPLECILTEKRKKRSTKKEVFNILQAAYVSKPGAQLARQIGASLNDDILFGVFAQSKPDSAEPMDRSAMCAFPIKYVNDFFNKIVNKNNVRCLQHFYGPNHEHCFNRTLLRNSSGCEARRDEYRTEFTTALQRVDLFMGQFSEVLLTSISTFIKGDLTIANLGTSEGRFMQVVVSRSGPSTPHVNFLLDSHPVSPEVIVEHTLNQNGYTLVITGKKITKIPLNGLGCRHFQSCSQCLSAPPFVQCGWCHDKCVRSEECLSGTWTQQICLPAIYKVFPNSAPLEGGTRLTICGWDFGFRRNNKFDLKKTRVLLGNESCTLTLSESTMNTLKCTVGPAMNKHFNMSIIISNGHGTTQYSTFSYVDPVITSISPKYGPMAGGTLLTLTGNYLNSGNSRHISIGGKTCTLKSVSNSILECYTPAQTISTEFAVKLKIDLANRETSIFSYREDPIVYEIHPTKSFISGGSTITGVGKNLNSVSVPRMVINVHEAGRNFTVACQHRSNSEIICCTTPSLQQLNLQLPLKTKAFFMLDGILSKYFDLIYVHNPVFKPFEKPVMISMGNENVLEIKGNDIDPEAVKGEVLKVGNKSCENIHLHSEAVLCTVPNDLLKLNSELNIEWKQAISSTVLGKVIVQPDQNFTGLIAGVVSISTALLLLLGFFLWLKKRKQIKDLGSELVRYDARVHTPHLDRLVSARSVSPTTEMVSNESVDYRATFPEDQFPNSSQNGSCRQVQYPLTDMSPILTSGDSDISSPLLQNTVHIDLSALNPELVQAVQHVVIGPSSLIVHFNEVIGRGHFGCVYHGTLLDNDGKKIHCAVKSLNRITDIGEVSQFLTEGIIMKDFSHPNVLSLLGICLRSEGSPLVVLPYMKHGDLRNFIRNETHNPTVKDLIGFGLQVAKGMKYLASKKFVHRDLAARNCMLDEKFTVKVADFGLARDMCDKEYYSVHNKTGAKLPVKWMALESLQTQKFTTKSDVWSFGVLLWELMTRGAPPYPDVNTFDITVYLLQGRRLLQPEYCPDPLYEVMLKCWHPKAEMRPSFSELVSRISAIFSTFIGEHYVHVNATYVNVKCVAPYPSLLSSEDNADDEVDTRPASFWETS
Assay: Inhibition of His6-tagged human c-Met Y1230C mutant expressed in Sf9 cells pre-incubated with enzyme for 30 mins prior to addition of ATP using (Glu4Tyr) or Met2 peptide substrate by coupled enzymatic assay
Known Ki of a selection of compounds

| Compound | Target | Ki |
| --- | --- | --- |
| C[C@@H](Oc1cc(-c2cnn(C3CCNCC3)c2)cnc1N)c1c(Cl)c(F)cc2c1OCCO2 | Hepatocyte growth factor receptor (Homo sapiens, UniProt P08581, Y1230C) | 0.21 µM |

Turning now to a further record.
// query Value lookup for Ki; key = CC(Oc1cc(-c2cnn(CCCC#N)c2)cnc1N)c1c(Cl)ccc(F)c1Cl (configuration not stated)
// result 0.323 µM
